Biological target: T1, recombinant human CD137-Fc (R&D #838-4B) (human, UniProt Q07011 24-186)
T1 construct: Bought; also called Human CD137 (R&D systems); CD137 (R&D Systems); not shown: Fc part, not described
T1 sequence (Q07011 24-186 limits assumed): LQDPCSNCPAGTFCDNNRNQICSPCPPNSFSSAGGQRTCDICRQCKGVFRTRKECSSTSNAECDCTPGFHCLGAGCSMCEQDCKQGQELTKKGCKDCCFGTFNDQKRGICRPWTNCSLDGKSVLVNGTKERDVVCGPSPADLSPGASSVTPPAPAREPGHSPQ
Experiment: ELISA
Measured attribute: binding result

Reference set (5 entries):
binder="anti-OX40 antibody 1482/1483 (antibody, V domains shown, Tested as IgG) VH: EVQLLESGGGLVQPGGSLRLSCAASGFTFSSYAMSWVRQAPGKGLEWVSYISYYSGYTYYADSVKGRFTISRDNSKNTLYLQMNSLRAEDTAVYYCARGYGYLDYWGQGTLVTVSS VL: DIQMTQSPSSLSASVGDRVTITCRASQSISSYLNWYQQKPGKAPKLLIYAASSLQSGVPSRFSGSGSGTDFTLTISSLQPEDFATYYCQQYGSLLTFGQGTKLEIK" result="no binding"
binder="anti-OX40 antibody 1166/1167 (antibody, V domains shown, Tested as IgG) VH: EVQLLESGGGLVQPGGSLRLSCAASGFTFGGYYMSWVRQAPGKGLEWVSAISGSGGSTYYADSVKGRFTISRDNSKNTLYLQMNSLRAEDTAVYYCARYDYASMDYWGQGTLVTVSS VL: DIQMTQSPSSLSASVGDRVTITCRASQSISSYLNWYQQKPGKAPKLLIYAASSLQSGVPSRFSGSGSGTDFTLTISSLQPEDFATYYCQQYYWYGLSTFGQGTKLEIK" result="no binding"
binder="anti-OX40 antibody 1524/1525 (antibody, V domains shown, Tested as IgG) VH: EVQLLESGGGLVQPGGSLRLSCAASGFTFGSYYMGWVRQAPGKGLEWVSSIGSYYGYTYYADSVKGRFTISRDNSKNTLYLQMNSLRAEDTAVYYCARHDYGALDYWGQGTLVTVSS VL: DIQMTQSPSSLSASVGDRVTITCRASQSISSYLNWYQQKPGKAPKLLIYAASSLQSGVPSRFSGSGSGTDFTLTISSLQPEDFATYYCQQYGPSGLFTFGQGTKLEIK" result="no binding"
binder="anti-OX40 antibody 1514/1515 (antibody, V domains shown, Tested as IgG) VH: EVQLLESGGGLVQPGGSLRLSCAASGFTFGYYYMSWVRQAPGKGLEWVSGISSYGSYTYYADSVKGRFTISRDNSKNTLYLQMNSLRAEDTAVYYCARSGYSNWANSFDYWGQGTLVTVSS VL: DIQMTQSPSSLSASVGDRVTITCRASQSISSYLNWYQQKPGKAPKLLIYAASSLQSGVPSRFSGSGSGTDFTLTISSLQPEDFATYYCQQGDYTLFTFGQGTKLEIK" result="no binding"
binder="anti-OX40 antibody 1526/1527 (antibody, V domains shown, Tested as IgG) VH: EVQLLESGGGLVQPGGSLRLSCAASGFTFSGYSMYWVRQAPGKGLEWVSGIGYSGYGTYYADSVKGRFTISRDNSKNTLYLQMNSLRAEDTAVYYCARYYFHDYAAYSLDYWGQGTLVTVSS VL: DIQMTQSPSSLSASVGDRVTITCRASQSISSYLNWYQQKPGKAPKLLIYAASSLQSGVPSRFSGSGSGTDFTLTISSLQPEDFATYYCQQYGSDSLLTFGQGTKLEIK" result="no binding"

Would you kindly look at the next entry?
Query: Name the reported binding result value associated with the binder anti-OX40 antibody 1170/1171 (antibody, V domains shown, Tested as IgG) VH: EVQLLESGGGLVQPGGSLRLSCAASGFTFGGYYMSWVRQAPGKGLEWVSYIPGSGGSTYYADSVKGRFTISRDNSKNTLYLQMNSLRAEDTAVYYCARYDYYWMDYWGQGTLVTVSS VL: DIQMTQSPSSLSASVGDRVTITCRASQSISSYLNWYQQKPGKAPKLLIYAASSLQSGVPSRFSGSGSGTDFTLTISSLQPEDFATYYCQQGHGSYPHTFGQGTKLEIK
Reply: no binding
